Known EC50 of a selection of compounds
# SYSTEM: HarmOR31 (Helicoverpa armigera, UniProt A0A7T3N2E9)
# Sequence (A0A7T3N2E9 entry or part of it): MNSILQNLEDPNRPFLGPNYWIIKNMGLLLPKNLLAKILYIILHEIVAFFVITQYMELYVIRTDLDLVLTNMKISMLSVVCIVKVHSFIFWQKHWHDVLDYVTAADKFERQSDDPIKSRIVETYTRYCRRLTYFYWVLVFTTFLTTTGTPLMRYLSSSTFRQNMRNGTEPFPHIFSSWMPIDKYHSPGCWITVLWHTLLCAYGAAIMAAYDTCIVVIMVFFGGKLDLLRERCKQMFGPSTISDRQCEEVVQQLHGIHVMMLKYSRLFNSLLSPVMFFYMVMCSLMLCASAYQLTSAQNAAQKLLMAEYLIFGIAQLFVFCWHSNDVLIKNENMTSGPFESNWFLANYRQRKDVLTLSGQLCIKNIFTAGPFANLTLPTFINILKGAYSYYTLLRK
# METHOD_SUMMARY: Xenopus oocyte two-electrode voltage clamp, HarmOR31 + Orco
# Type: cell-based
# MEASUREMENT_PARAMETERS: HarmOR31; dose response in oocytes; unit M; read-out: EC50
# Source text: In order to expand our analysis on the response properties of HarmORs, we conducted dose–response analyses for the 28 functional HarmORs. […] Many of these terpenes have been proposed to be defensive chemicals of plants. Briefly, the full-length gene of each OR and Orco were subcloned into the eukaryotic expression vector pT7TS. cRNAs were generated from linearized expression vectors using the mMESSAGE mMACHINE T7 kit (Ambion, Austin, TX). […]
Write your answer as a measured quantity: the number, then the unit.

1) CC/C=C\CCOC(C)=O [(Z)-3-Hexenyl acetate]    7.51 µM

# value of EC50, HarmOR31 (Helicoverpa armigera, UniProt A0A7T3N2E9), item CCCCCCCCO = 96.1 µM

# value of EC50, HarmOR31 (Helicoverpa armigera, UniProt A0A7T3N2E9), item CCC/C=C/COC(C)=O [(E)-2-Hexenyl acetate] = 5.02 µM

# value of EC50, HarmOR31 (Helicoverpa armigera, UniProt A0A7T3N2E9), item CCCCCC1CCCC(=O)O1 (stereo not shown) = 8.16 µM
